These entries and their values trace back to the supplement of paper PMC10567573.

B1: KIAA1161 (parent)
chain: FMPAMQFSIPPWRYDAEVVAIAQK

variants of: B1; experiment: protein stability index of a GFP-peptide fusion (GPS, HEK-293T) (PSI 1-6); higher = more stable; details: c terminus: a fixed tail appended;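 further: lentivirally expressed fusions sorted by FACS into six bins by GFP to DsRed ratio, PSI derived from sequencing read proportions per bin multiplied by bin number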
Listed below: protein stability index values for each entry.

| Item sequence | protein stability index |
| --- | --- |
| FMPAMQFVIPPWRYDAEVVAIAQK | 2 |
| KMPAMQFSIPPWRYDAEVVAIAQK | 2.55 |
| FMPAMQFSIPPWRYDAEVVAIAQS | 1.68 |
| FMPAMQFSIPPWRYDAEVEAIAQK | 2.42 |
| FMPAMQFSIPPWRYDDEVVAIAQK | 2.25 |
| FMPAMQFSTPPWRYDAEVVAIAQK | 1.8 |
| FMPLMQFSIPPWRYDAEVVAIAQK | 2.09 |
| FMPAMQFSIPPWRYDREVVAIAQK | 2.65 |
| FMPAMQFSIPPWRYDAEFVAIAQK | 1.62 |
| FMPAMQFSITPWRYDAEVVAIAQK | 2 |
| FMPAMQFSIPPWRYDAELVAIAQK | 2.23 |
| QMPAMQFSIPPWRYDAEVVAIAQK | 3.2 |
| FMPAHQFSIPPWRYDAEVVAIAQK | 2.71 |
| FMPAMQFSIPPWRYDHEVVAIAQK | 1.63 |
| FMPAMQFSIPPWRYDAEAVAIAQK | 2.17 |
| FMPAMQFSIPPWGYDAEVVAIAQK | 1.53 |
| FMPAMQFSIPPFRYDAEVVAIAQK | 2.26 |
| FMPAMRFSIPPWRYDAEVVAIAQK | 1.82 |
| FMPAMQFSIPPWRYDAEVVAGAQK | 2.66 |
| FMPAMQFSHPPWRYDAEVVAIAQK | 2.35 |
| FMPAMQFSIPPWRYDAEVVAIKQK | 1.88 |
| FMPAMQFSIPPWRYDAEVVAIAQP | 2.01 |
| FMPAMQFSIPPWRYDMEVVAIAQK | 1.53 |
| FMPAMQFSIPPWRYDYEVVAIAQK | 2.19 |
| FMPAMQFSIPPWRYDAEVVAIPQK | 2.58 |
| FMPAMQFSIPPWRHDAEVVAIAQK | 2.52 |
| FMPAMQFSIPPWRYDAEVVWIAQK | 1.04 |
| FRPAMQFSIPPWRYDAEVVAIAQK | 2.45 |
| FMPAMQFSIPPWRYDAEVVAIAQA | 2.31 |
| FMPEMQFSIPPWRYDAEVVAIAQK | 2.34 |
| FMPAMQFSIPPWRKDAEVVAIAQK | 2.08 |
| FMPAMQFSIPPWRYDAEVVAIAQD | 1.82 |
| FMPAMQFSIPPWRYDKEVVAIAQK | 1.59 |
| FMPAMQFSIPPWRYDAEVVNIAQK | 3.44 |
| FMPAMQFSIPPWRYMAEVVAIAQK | 2.56 |
| FMPAMQFSIPPWRYDAEVVATAQK | 2.17 |
| FMPAMQFSIPPWRYDAEVVALAQK | 1.93 |
| FMPATQFSIPPWRYDAEVVAIAQK | 1.68 |
| FMPAMIFSIPPWRYDAEVVAIAQK | 1.34 |
| FMPAMQFSEPPWRYDAEVVAIAQK | 2.37 |
| FMPAMQFSIPPWRYTAEVVAIAQK | 2.69 |
| FMPAMGFSIPPWRYDAEVVAIAQK | 1.83 |
| FMPTMQFSIPPWRYDAEVVAIAQK | 1.76 |
| FMPAMQFSIPPWRYDAEVVPIAQK | 2.16 |
| FMPAMQFSIPPWRYDAEEVAIAQK | 2.63 |
| FMPKMQFSIPPWRYDAEVVAIAQK | 1.87 |
| FMPAMQISIPPWRYDAEVVAIAQK | 2.9 |
| FMPAMQFGIPPWRYDAEVVAIAQK | 1.65 |
| FMPAMQFSIPPWQYDAEVVAIAQK | 2.53 |
| FMPAMVFSIPPWRYDAEVVAIAQK | 3.24 |
| FMPAMQFSIPPWRYDARVVAIAQK | 1.38 |
| FMPAMQFKIPPWRYDAEVVAIAQK | 2.93 |
| FMPAMQFSIPPWRYDAEVVAIAQC | 1.61 |
| FMPAMQFSIPPWRYDAEVVKIAQK | 2.34 |
| FMPAMQFSIPPWRDDAEVVAIAQK | 2.2 |
| FMPAMQFSIPPWRYDAEVDAIAQK | 2.82 |
| FWPAMQFSIPPWRYDAEVVAIAQK | 2.09 |
| FMPAMQHSIPPWRYDAEVVAIAQK | 2.01 |
| FMPAMQFSIPPWRYDAEVSAIAQK | 1.48 |
| FMPAMQFSIPPWRYDAEVVAIAWK | 2.74 |
| FMPAMQFSIPPWRYGAEVVAIAQK | 1.75 |
| FMPAMQFSIPPWRYDAEVVHIAQK | 1.97 |
| FMPAMQFSIPPWRYDAVVVAIAQK | 1.24 |
| FMPAMQQSIPPWRYDAEVVAIAQK | 2.89 |
| FMPAMQFSIPPWRYSAEVVAIAQK | 1.24 |
| YMPAMQFSIPPWRYDAEVVAIAQK | 1.82 |
| CMPAMQFSIPPWRYDAEVVAIAQK | 1.97 |
| FMPAMQFSIPPWRYDAEVRAIAQK | 2.83 |
| FMPAMQFSIPPWRYDFEVVAIAQK | 2.28 |
| FMPAMQFSIPPWRYQAEVVAIAQK | 1.94 |
| FMPAVQFSIPPWRYDAEVVAIAQK | 2.23 |
| FMPAMQFSIPPWRYNAEVVAIAQK | 3.08 |
| FMPAMQFSNPPWRYDAEVVAIAQK | 2.28 |
| FMPAMQFSIPPWRYDADVVAIAQK | 1.54 |
| SMPAMQFSIPPWRYDAEVVAIAQK | 1.84 |
| FMKAMQFSIPPWRYDAEVVAIAQK | 2.58 |
| FMPAMQFSIPPWRYDAEVVAIAQG | 1.33 |
| FMPAMQFSIPPWRYDAEVVAIQQK | 2.56 |
| FMPAMQFSIPPWRYDAEVVAQAQK | 2.81 |
| FMPAMQGSIPPWRYDAEVVAIAQK | 1.61 |
| FMPAMQFLIPPWRYDAEVVAIAQK | 2.05 |
| FMPAMQFSIPPCRYDAEVVAIAQK | 1.73 |
| FMPAMYFSIPPWRYDAEVVAIAQK | 1.34 |
| FMPAMQFSIPPWRYDAEVVAIAQN | 2.58 |
| FMPAMQFSIPPWRYDAWVVAIAQK | 3.06 |
| FMPAMQFSIAPWRYDAEVVAIAQK | 1.33 |
| FMPAMQFSIPPWRYDAEVVAIAHK | 1.66 |
| FMPAMQFMIPPWRYDAEVVAIAQK | 1.71 |
